- Test system: Brain
- EXPERIMENTAL_DETAILS: Drug concentration in Sprague-Dawley rat brain assessed as 6-(5-chloropyridin-2-yl)-3-(4-((3,3-difluoro-1-hydroxycyclobutyl)methoxy)-3-methoxyphenyl)pyrrolo[1,2-f][1,2,4]triazin-4(3H)-one level at 10 mg/kg, po qd at 8 hrs
- Type: ADME, organism-based
- TEST_CONDITIONS: in vivo, read-out: Drug uptake
MEASURED_ENDPOINT: concentration (µM)
Give bare numbers, in µM.

Need concentration of `COc1cc(-n2cnn3cc(-c4ccc(Cl)cn4)cc3c2=O)ccc1OCC1(OC(=O)CN)CC(F)(F)C1` , thanks. 3.59

* * *

- Test system: Brain
- EXPERIMENTAL_DETAILS: Drug concentration in Sprague-Dawley rat brain assessed as 6-(4-chlorophenyl)-3-(4-(2-hydroxy-2-methylpropoxy)-3-methoxyphenyl)pyrrolo[1,2-f][1,2,4]triazin-4(3H)-one level at 3 mg/kg, po qd at 20 hrs
- Type: ADME, organism-based
- TEST_CONDITIONS: in vivo, read-out: Drug uptake
MEASURED_ENDPOINT: concentration (nM)
Give bare numbers, in nM.

# query: concentration of entry `COc1cc(-n2cnn3cc(-c4ccc(Cl)cc4)cc3c2=O)ccc1OCC(C)(C)OC(=O)CN` 1570

* * *

- System: Brain
- EXPERIMENTAL_DETAILS: Drug concentration in Sprague-Dawley rat brain assessed as (R)-6-(5-chloropyridin-2-yl)-3-(4-(2-cyclopropyl-2-hydroxyethoxy)-3-methoxyphenyl)pyrrolo[1,2-f][1,2,4]triazin-4(3H)-one level at 10 mg/kg, po qd at 8 hrs
- Format: ADME, organism-based
- TEST_CONDITIONS: in vivo, read-out: Drug uptake
MEASURED_ENDPOINT: concentration (nM)
One number for each entry, in nM.

If you can, please state the reported concentration value of `COc1cc(-n2cnn3cc(-c4ccc(Cl)cn4)cc3c2=O)ccc1OC[C@H](OC(=O)CN)C1CC1` . 1150

* * *

- ASSAYED_TARGET: Melanin-concentrating hormone receptor 1 (Homo sapiens)
- Sequence (Q99705 whole entry): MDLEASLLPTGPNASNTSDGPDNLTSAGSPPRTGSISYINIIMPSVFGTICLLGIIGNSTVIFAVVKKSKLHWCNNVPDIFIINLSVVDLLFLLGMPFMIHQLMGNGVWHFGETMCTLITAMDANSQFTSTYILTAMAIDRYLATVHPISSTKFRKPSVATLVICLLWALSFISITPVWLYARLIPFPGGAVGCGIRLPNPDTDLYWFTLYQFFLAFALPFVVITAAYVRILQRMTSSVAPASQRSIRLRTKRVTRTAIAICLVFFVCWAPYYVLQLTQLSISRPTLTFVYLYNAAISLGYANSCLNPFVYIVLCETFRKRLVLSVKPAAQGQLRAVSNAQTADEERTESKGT
- EXPERIMENTAL_DETAILS: Antagonist activity at human MCHR1 expressed in HEK293 cells assessed as inhibition of MCH-induced Ca2+ influx for 120 mins by FLIPR assay
MEASURED_ENDPOINT: IC50

>  <COMPOUND>
COc1cc(-n2cnn3cc(-c4ccc(Cl)cc4)cc3c2=O)ccc1N1C[C@@H](O)[C@@H](O)C1

>  <IC50>
5000 nM

$$$$
>  <COMPOUND>
COc1cc(-n2cnc3cc(-c4ccc(Cl)cc4)sc3c2=O)ccc1OCC(C)(C)O

>  <IC50>
16 nM

$$$$
>  <COMPOUND>
COc1cc(-n2cnn3cc(-c4ccc(Cl)cc4)cc3c2=O)ccc1OCC(O)C1CC1 (centres undefined)

>  <IC50>
300 nM

$$$$

Switching to the query record.
Which IC50 is reported for this compound? `COc1cc(-n2cnn3cc(-c4ccc(Cl)cc4)cc3c2=O)ccc1OCC(C)(C)O` 44 nM

* * *

- EXPERIMENTAL_DETAILS: AUC (0 to 8 hrs ) in Sprague-Dawley rat at 10 mg/kg, po qd
- Format: ADME, organism-based
- Parameters: time < 8 hr, dose 10 mg/kg, route oral
- TEST_CONDITIONS: in vivo
MEASURED_ENDPOINT: AUC at 8 h (µM·h)
Give bare numbers, in µM·h.

Suppose we examine the compound `COc1cc(-n2cnn3cc(-c4ccc(Cl)cc4)cc3c2=O)ccc1OCC(C)(C)OC(=O)CN` ; what AUC at 8 h value has been reported? 0.015

* * *

- System: Brain
- EXPERIMENTAL_DETAILS: Drug concentration in Sprague-Dawley rat brain assessed as 6-(4-chlorophenyl)-3-(4-(2-cyclopropyl-2-hydroxyethoxy)-3-methoxyphenyl)pyrrolo[1,2-f][1,2,4]triazin-4(3H)-one level at 10 mg/kg, po qd at 20 hrs
- Type: ADME, organism-based
- TEST_CONDITIONS: in vivo, read-out: Drug uptake
MEASURED_ENDPOINT: concentration (µM)
Give bare numbers, in µM.

What concentration appears in the records for this compound with Brain? COc1cc(-n2cnn3cc(-c4ccc(Cl)cc4)cc3c2=O)ccc1OCC(OC(=O)[C@@H](N)C(C)C)C1CC1 (stereo partly specified) 7.98

* * *

- Tested on: Plasma
- EXPERIMENTAL_DETAILS: Plasma concentration in Sprague-Dawley rat assessed as 6-(4-chlorophenyl)-3-(4-(2-cyclopropyl-2-hydroxyethoxy)-3-methoxyphenyl)pyrrolo[1,2-f][1,2,4]triazin-4(3H)-one level at 10 mg/kg, po qd at 8 hrs
- Format: ADME, organism-based
- TEST_CONDITIONS: in vivo
MEASURED_ENDPOINT: concentration (nM)
One number for each entry, in nM.

// lookup concentration | system=Plasma | key= COc1cc(-n2cnn3cc(-c4ccc(Cl)cc4)cc3c2=O)ccc1OCC(OC(=O)[C@@H](N)C(C)C)C1CC1 (stereo partly specified) 1250

* * *

- System: Plasma
- EXPERIMENTAL_DETAILS: Plasma concentration in Sprague-Dawley rat assessed as 6-(5-chloropyridin-2-yl)-3-(4-((3,3-difluoro-1-hydroxycyclobutyl)methoxy)-3-methoxyphenyl)pyrrolo[1,2-f][1,2,4]triazin-4(3H)-one level at 10 mg/kg, po qd at 8 hrs
- Type: ADME, organism-based
- TEST_CONDITIONS: in vivo
MEASURED_ENDPOINT: concentration (µM)
Give bare numbers, in µM.

State the recorded concentration for this entry: `COc1cc(-n2cnn3cc(-c4ccc(Cl)cn4)cc3c2=O)ccc1OCC1(OC(=O)CN)CC(F)(F)C1` 5.59

* * *

- Test system: Plasma
- EXPERIMENTAL_DETAILS: Plasma concentration in Sprague-Dawley rat assessed as (S)-6-(5-chloropyridin-2-yl)-3-(4-(3-(ethylsulfonyl)-2-hydroxypropoxy)-3-methoxyphenyl)pyrrolo[1,2-f][1,2,4]triazin-4(3H)-one level at 10 mg/kg, po qd at 8 hrs
- Assay type: ADME, organism-based
- TEST_CONDITIONS: in vivo
MEASURED_ENDPOINT: concentration (µM)
Numbers only, in µM.

Need concentration of `CCS(=O)(=O)C[C@H](COc1ccc(-n2cnn3cc(-c4ccc(Cl)cn4)cc3c2=O)cc1OC)OC(=O)CN` , thanks. 15.6

* * *

- System: Plasma
- EXPERIMENTAL_DETAILS: Plasma concentration in Sprague-Dawley rat assessed as (R)-6-(5-chloropyridin-2-yl)-3-(4-(2-cyclopropyl-2-hydroxyethoxy)-3-methoxyphenyl)pyrrolo[1,2-f][1,2,4]triazin-4(3H)-one level at 10 mg/kg, po qd at 8 hrs
- Format: ADME, organism-based
- TEST_CONDITIONS: in vivo
MEASURED_ENDPOINT: concentration (µM)
One number for each entry, in µM.

Consider the compound shown here: `COc1cc(-n2cnn3cc(-c4ccc(Cl)cn4)cc3c2=O)ccc1OC[C@H](OC(=O)CN)C1CC1` What is its recorded concentration? 7.45

* * *

- Tested on: Brain
- EXPERIMENTAL_DETAILS: Drug concentration in Sprague-Dawley rat brain assessed as (R)-6-(4-chlorophenyl)-3-(4-(3-hydroxypyrrolidin-1-yl)-3-methoxyphenyl)pyrrolo[1,2-f][1,2,4]triazin-4(3H)-one level at 10 mg/kg, po qd at 8 hrs
- Format: ADME, organism-based
- TEST_CONDITIONS: in vivo, read-out: Drug uptake
MEASURED_ENDPOINT: concentration (nM)
One number for each entry, in nM.

Requested field: concentration. Item: `COc1cc(-n2cnn3cc(-c4ccc(Cl)cc4)cc3c2=O)ccc1N1CC[C@@H](OC(=O)[C@@H](N)C(C)C)C1` 966

* * *

- Tested on: Brain
- EXPERIMENTAL_DETAILS: Drug concentration in Sprague-Dawley rat brain assessed as 6-(4-chlorophenyl)-3-(4-((3,3-difluoro-1-hydroxycyclobutyl)methoxy)-3-methoxyphenyl)pyrrolo[1,2-f][1,2,4]triazin-4(3H)-one level at 10 mg/kg, po qd at 8 hrs
- Assay type: ADME, organism-based
- TEST_CONDITIONS: in vivo, read-out: Drug uptake
MEASURED_ENDPOINT: concentration (nM)
One number for each entry, in nM.

Requested read-out: concentration. Entry: `COc1cc(-n2cnn3cc(-c4ccc(Cl)cc4)cc3c2=O)ccc1OCC1(OC(=O)CN)CC(F)(F)C1` 2380

* * *

- Test system: Plasma
- EXPERIMENTAL_DETAILS: Plasma concentration in Sprague-Dawley rat assessed as 6-(4-chlorophenyl)-3-(4-((3S,4R)-3,4-dihydroxypyrrolidin-1-yl)-3-methoxyphenyl)pyrrolo[1,2-f][1,2,4]triazin-4(3H)-one level at 10 mg/kg, po qd at 8 hrs
- Assay type: ADME, organism-based
- TEST_CONDITIONS: in vivo
MEASURED_ENDPOINT: concentration (nM)
Answers are plain numbers, in nM.

Which value of concentration has been reported for `COc1cc(-n2cnn3cc(-c4ccc(Cl)cc4)cc3c2=O)ccc1N1C[C@H](OC(=O)[C@@H](N)C(C)C)[C@H](OC(=O)[C@@H](N)C(C)C)C1` in the records? 272
